tgt: Phospho-2-dehydro-3-deoxyheptonate aldolase (Escherichia coli, UniProt C3TIE2)
Sequence (C3TIE2 whole entry): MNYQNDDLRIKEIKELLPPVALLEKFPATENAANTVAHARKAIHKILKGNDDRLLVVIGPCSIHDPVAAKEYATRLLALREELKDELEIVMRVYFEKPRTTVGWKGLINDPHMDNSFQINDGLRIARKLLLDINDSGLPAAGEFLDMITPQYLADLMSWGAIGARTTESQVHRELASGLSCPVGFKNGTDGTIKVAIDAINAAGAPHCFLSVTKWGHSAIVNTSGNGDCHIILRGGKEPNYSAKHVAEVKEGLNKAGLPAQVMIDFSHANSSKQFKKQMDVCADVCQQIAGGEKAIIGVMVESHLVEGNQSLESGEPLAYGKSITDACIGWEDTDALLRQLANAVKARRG
assay-explanation: Inhibition of recombinant Escherichia coli DAH7P synthase
Assign Ki to each entry below.
One number for each entry, in µM.

C/C(=C\P(=O)(O)O)C(=O)O | 4.7

Challenge: For the molecule C=C(CP(=O)(O)O)C(=O)O , give its reported Ki.
Response given: 270
